test system: UACC-257 melanoma; test: NCI tumour cell line growth inhibition, 48 h
Let's look at some compounds and their measured GI50.

Solved entries (count: 4):
Which GI50 value belongs to Cc1cnc(C(=O)NNc2nc3sc4c(c3c(=O)[nH]2)C(C)CCC4)cn1 (stereo not given) ?
2.61 µM

Consider the compound Nc1nc(=S)c2ncn(C3OC(COP(=O)(O)O)C(O)C3O)c2[nH]1 (stereo not given) and give its measured GI50.
4.57 µM

Requested field: GI50. Item: `COc1ccc(-c2[nH]c3ccc(OC)cc3c2C=C(C#N)C#N)cc1`
> 100 µM

Fill blank: measured GI50 of the compound `CN1CCN(c2c(F)cc(NC3=C(Cl)C(=O)c4ncccc4C3=O)cc2F)CC1` is ____.
1.68 µM

Consider the record given below.
Query: GI50; subject: `Cc1ccc(NC(=O)c2cc(S(=O)(=O)Nc3nnc(-c4ccccc4)c(-c4ccccc4)n3)c(SCc3ccccc3)cc2Cl)cc1`
20.7 µM

----------
system: OVCAR-5 ovarian; assay: NCI tumour cell line growth inhibition, 48 h
Where a SMILES comes first, the peptide text is derived from it. [ ]: non-standard residue; d: D form. The star is where a group is joined. ξ: configuration not given here. ξF = NC(Cc1ccccc1)C(=O)O; Cbz = O=C(OCc1ccccc1)*
measured_quantity: TGI

// returns reported TGI for input `Cc1c(C)c2c(c(N)c1C#N)C(=O)N(Cc1ccc(S(N)(=O)=O)cc1)C2=O`
> 87.9 µM

What does the record list as TGI for CCN(/C=C1/C(=O)C(c2ccccc2)N(c2ccccc2)C1=O)CC (stereo unspecified) ?
> 10 µM

Which TGI reading was recorded for the molecule CCOC(=O)CNC(=O)C(Cc1ccccc1)NC(=O)OCc1ccccc1 (stereo unspecified) (Cbz-[ξF]-Gly-OEt) ?
> 100 µM

Using the record for Cc1ccc(S(=O)(=O)OC2CC(C(C)(C)C)CCC2c2ccccc2)cc1 (stereo unspecified) , report its TGI.
> 100 µM

# input molecule: `COC(=O)c1c(C)cccc1/C=C1\Cc2ccc(C)c(C)c2C1=O` ; wanted: its TGI
> 100 µM

Item `C=CCC(CCC(C)=O)(C(=O)OCC)C(=O)OCC` has what recorded TGI?
> 100 µM

Looking for the measured TGI of `O=C(Nn1c(-c2ccccc2)nc2ccccc2c1=O)c1ccc(Cl)cc1` , can you help?
> 100 µM

Requested field: TGI. Item: COc1ccc(C(O)c2cc3c(N)c(C(=O)Nc4cccc5ccccc45)sc3nc2C)cc1 (stereo unspecified)
> 100 µM

# input molecule: `COc1ccc(-c2cc(/C=C/C(=O)c3ccc(N)cc3)[nH]n2)cc1OC` ; wanted: its TGI
7.94 µM

Given the molecule CC(C)Cc1ccc(C(C)/C=C2\CCC(CN(C)C)C2=O)cc1 (stereo unspecified) , what is its reported TGI?
43.1 µM

Others:
Please report the recorded TGI for `Oc1ccc(C(=C(Br)c2ccccc2)c2ccc(O)cc2)cc1` .
31.2 µM

----------
system: SF-539 CNS; assay: NCI tumour cell line growth inhibition, 48 h
measured_quantity: TGI

Take a look at these entries with their results.
Identify the measured TGI of `C[C@H](C(=O)O)C(=O)NC(=O)N(Cc1ccccc1)N=O` for SF-539 CNS.
> 100 µM

Item `COC(=O)[C@@H]1[C@@H]2NC(=S)N[C@@]1(C)Oc1ccccc12` with SF-539 CNS - TGI?
> 100 µM

Continuing:
Lookup: TGI / SF-539 CNS / `O=C(NCCN(CCNC(=O)c1cccc(O)c1O)CCNC(=O)c1cccc(O)c1O)c1cccc(O)c1O`
> 100 µM

----------
system: NCI-H460 lung; experiment: NCI tumour cell line growth inhibition, 48 h
Listed compounds paired with reported TGI

# annotated cases, reported TGI shown
Look up TGI for this compound: `O=C(c1ccccc1)C1(Br)S(=O)(=O)OCCOS1(=O)=O`
> 100 µM

Query (compound): `Cc1cccc2sc(NC(=O)NS(=O)(=O)n3cnc4ccccc43)nc12` ; field requested: TGI
> 100 µM

What TGI value was documented for this compound, `CN(C)c1ccc(-c2cc(-c3ccc(Nc4nc(Nc5ccc(Cl)cc5)nc(Nc5ccc(Cl)cc5)n4)cc3)nc(N)c2C#N)cc1` ?
> 100 µM

Fill in: TGI of CC(=O)OC1COC(N2CCc3cc([N+](=O)[O-])ccc32)C(OC(C)=O)C1OC(C)=O (stereo unspecified) is ___
> 100 µM

Dear colleague, I am looking for the recorded TGI of the following compound: `COC(=O)C1=C(C(=O)OC)C2(c3ccccc3)OC1(c1ccccc1)c1cc3ccccc3cc12`
11.9 µM

New cases:
So what's the measured TGI for this one? COc1ccc2nc3cc(Cl)ccc3c(NC(C)CCCN(CCCl)CCCl)c2c1 (stereo unspecified)
1.58 µM

----------
system: K-562 leukemia; assay: NCI tumour cell line growth inhibition, 48 h
measured_quantity: TGI (µM)
Supply the numeric figure in µM, leaving out any unit text.

Field: example entries. Status: answers known.
K-562 leukemia / TGI / `O=C(O)CCCc1ccc2c(c1)CC1(C2)Cc2cc3c(cc2C1)CCCC3` : value?
25.9

GET /values?readout=TGI&system=K-562 leukemia&item= C[C@H]1CC[C@@]2(OC1)O[C@H]1C[C@H]3[C@@H]4CC[C@@H]5C[C@@H](OC6OC(CO)C(O)C(O)C6OC6OC(CO)C(O)C(O)C6O)CC[C@]5(C)[C@H]4CC[C@]3(C)[C@H]1[C@@H]2C (some centres undefined)
4.33

Next:
Request - read-out TGI | tested on K-562 leukemia | molecule `Oc1ccc(C(=C(Br)c2ccccc2)c2ccc(O)cc2)cc1`
9.07

Report TGI for `O=C(c1ccccc1)[C@H]1Nc2ccc(Cl)cc2[C@H]2CCC[C@@H]12` tested on K-562 leukemia.
64.5

----------
test system: DLD-1 colon; experiment: NCI tumour cell line growth inhibition, 48 h
measured_quantity: TGI

For `COC(=O)C1=C(C(=O)OC)C2(c3ccccc3)OC1(c1ccccc1)c1cc3ccccc3cc12` , what is its reported TGI?
3.46 µM

Please report the recorded TGI for `OC(c1ccccc1Br)(c1ccccc1Br)C(F)(F)F` .
97.6 µM

Tell me the measured TGI of `Cn1c(=O)c2nc3sc4c(n3c2n(C)c1=O)C(=O)c1ccccc1C4=O` , please.
> 100 µM

----------
test system: SK-MEL-5 melanoma; assay: NCI tumour cell line growth inhibition, 48 h; in the data active means GI50 below about 0.43 µM; inactive means the rest
Form entry, call: pick from active, inactive

Outcome logged for CCCCCC(=O)O[C@]1(C(C)=O)CCC2C3CCC4=CC(=O)CC[C@]4(C)C3CC[C@@]21C (stereo partly specified) in this assay:
inactive

Per the assay record, what outcome was assigned to COc1ccc(C(O)c2cc3c(N)c(C(=O)Nc4cccc5ccccc45)sc3nc2C)cc1 (stereo unspecified) ?
active

GET /call?item= `O=C(O)CN(CCN(CC(=O)O)CC(=O)O)CC(=O)O.[Mn+2]` returns the recorded outcome of this test.
inactive

***
In this assay, the call recorded for `Cc1ccc(NC(=O)c2cc(S(=O)(=O)Nc3nnc(-c4ccccc4)c(-c4ccccc4)n3)c(SCc3ccccc3)cc2Cl)cc1` was what?
inactive

Given `CC(=O)Oc1c(C(=O)[O-])cc(C(C)C)cc1C(C)C.CC(=O)Oc1c(C(=O)[O-])cc(C(C)C)cc1C(C)C.CC(=O)Oc1c(C(=O)[O-])cc(C(C)C)cc1C(C)C.CC(=O)Oc1c(C(=O)[O-])cc(C(C)C)cc1C(C)C.[Cu+2].[Cu+2]` , state the outcome it received in this test.
inactive

Assay result, entry `Cc1cc(Cl)nc(N(CCNc2ccnc3cc(Cl)ccc23)Cc2ccco2)n1` — outcome?
inactive

----------
system: SF-268 CNS; experiment: NCI tumour cell line growth inhibition, 48 h
measured_quantity: TGI (µM)
Please state the figure in µM; there is no need to write the unit.

Given the entry `COc1ccc(Nc2cnc3cc(N)cc(N)c3n2)cc1` , what TGI was observed with SF-268 CNS?
39.8

// moving on: another record for TGI
Short answer please: TGI, SF-268 CNS, entry `COCCN(CCOC)c1nc(-c2ccccc2)nc2ccccc12`
62.4

----------
system: CCRF-CEM leukemia; assay: NCI tumour cell line growth inhibition, 48 h
This listing pairs molecules with measured TGI.
Expressed in µM, but write only the number.

The following molecules have reported results that may help.
State the recorded TGI for this entry: `Cc1ccc(S[C@@](C=O)(NC(=O)OCc2ccccc2)C(F)(F)F)cc1`
52.3

Find the recorded TGI belonging to `COc1cc([C@@H]2c3cc4c(cc3[C@@H](Nc3ccc(NC(=O)c5cc([N+](=O)[O-])cn5C)cc3)[C@H]3COC(=O)[C@H]23)OCO4)cc(OC)c1O` and report it.
0.14

Need TGI, item `COC(=O)C1=C(C(=O)OC)C2(c3ccccc3)OC1(c1ccccc1)c1cc3ccccc3cc12`
4.55

We now examine a further molecule.
Return reported TGI; argument: `CN(NC1=NCCO1)c1ccc2ccccc2c1`
49.5
